Target sequence: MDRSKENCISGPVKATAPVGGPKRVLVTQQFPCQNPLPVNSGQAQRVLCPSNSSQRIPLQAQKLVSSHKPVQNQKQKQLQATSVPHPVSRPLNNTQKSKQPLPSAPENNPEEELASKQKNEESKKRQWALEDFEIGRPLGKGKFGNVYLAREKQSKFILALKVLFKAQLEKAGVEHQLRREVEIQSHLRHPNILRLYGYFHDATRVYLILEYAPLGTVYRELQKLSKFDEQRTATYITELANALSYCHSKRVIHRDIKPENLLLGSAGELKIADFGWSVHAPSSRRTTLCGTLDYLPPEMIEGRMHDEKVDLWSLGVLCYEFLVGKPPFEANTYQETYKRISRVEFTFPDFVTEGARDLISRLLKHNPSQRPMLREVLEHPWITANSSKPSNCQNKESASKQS
Give measured Ki for each item. Keep answers brief.

Examples with their reported Ki follow.
COMPOUND	Ki
Nc1nn2cc(-c3ccc(C(=O)N4CCC[C@@H]4CO)cn3)cnc2c1-c1ccccn1 [Compound V-93]	< 500 nM
COCCNc1ccc(-c2cnc3c(-c4ccccn4)c(N)nn3c2)cn1 [Compound V-156]	500 to 5000 nM
CN(C)CCNC(=O)c1cccc(-c2cnc3c(-c4ccccn4)c(N)nn3c2)c1 [Compound V-54]	500 to 5000 nM

Field: next compound
Ki recorded for this compound, Cc1cnc2c(-c3cc(NC4CCN(Cc5ccccc5)CC4)ncn3)c(N)nn2c1 [Compound V-285] , is 500 to 5000 nM
